tested on: Saccharomyces cerevisiae; experiment: protein stability index of tFT-peptide fusion (C-terminal peptide) (PSI (0-1 scale)); higher = more stable (slower turnover); details: genetic background: wild type; temperature: 30 C
Respond with TRUE for protein stability index values of 0.7 and above, FALSE for values below.

sequence-chain	subject-of-test	category
SLALLFSFLLFL	Saccharomyces cerevisiae	FALSE
RPFSSPSPSLPA	Saccharomyces cerevisiae	TRUE
SPHPRKTTSHPR	Saccharomyces cerevisiae	FALSE
VPVVQPNRSALI	Saccharomyces cerevisiae	TRUE
DSIALNKDVFWW	Saccharomyces cerevisiae	TRUE
SPPSPASPPSSP	Saccharomyces cerevisiae	TRUE
HPWAFRIRTPRL	Saccharomyces cerevisiae	TRUE
KNADHPRKDEQP	Saccharomyces cerevisiae	FALSE
DKKATTSIGIKK	Saccharomyces cerevisiae	FALSE
GGCGGVGGACVV	Saccharomyces cerevisiae	TRUE
PPHPHNPRPSTP	Saccharomyces cerevisiae	FALSE
CFPSSVPFPSLL	Saccharomyces cerevisiae	TRUE
LTLPPRPPSPPS	Saccharomyces cerevisiae	FALSE
AGVGVSSSLLPL	Saccharomyces cerevisiae	FALSE
IYFFVLRLRLCG	Saccharomyces cerevisiae	FALSE
MMEMMTKSNRIP	Saccharomyces cerevisiae	FALSE
PLPPPGPPRLSR	Saccharomyces cerevisiae	TRUE
IHLSVYPLQPSC	Saccharomyces cerevisiae	TRUE
APPPPPVPLPPP	Saccharomyces cerevisiae	TRUE
PAPLPADTFVEC	Saccharomyces cerevisiae	FALSE
RVVGLWGSACMG	Saccharomyces cerevisiae	FALSE
SRHPPPPVSPHP	Saccharomyces cerevisiae	TRUE
HIHQDPGVIRWG	Saccharomyces cerevisiae	TRUE

* * *

tested on: Saccharomyces cerevisiae; test: protein stability index of tFT-peptide fusion (C-terminal peptide) (PSI (0-1 scale)); higher = more stable (slower turnover); conditions: genetic background: wild type; temperature: 30 C
Recorded protein stability index for the following sequences

sequence-chain	subject-of-test	protein stability index
NGLRILICNTTP	Saccharomyces cerevisiae	0.697
GGSGGVSWRRVV	Saccharomyces cerevisiae	0.395
WCGQVFWCVKES	Saccharomyces cerevisiae	0.699
RSTSGACSRRWL	Saccharomyces cerevisiae	0.624
CFVICVCLCFGR	Saccharomyces cerevisiae	0.35
GPFRGRCFPFCI	Saccharomyces cerevisiae	0.667
LFFLSASFFFFF	Saccharomyces cerevisiae	0.289
SPPLSPPLPSRP	Saccharomyces cerevisiae	0.702
SDQEIKKSQCGG	Saccharomyces cerevisiae	0.659
KLLISLTWFCVL	Saccharomyces cerevisiae	0.284
LVVLGVRGGGGG	Saccharomyces cerevisiae	0.701
RLPLRVTGIPVD	Saccharomyces cerevisiae	0.667
CKIGMFIRWIGG	Saccharomyces cerevisiae	0.571
TAQKHQQPVQLH	Saccharomyces cerevisiae	0.715
PLLPLSFRIPPF	Saccharomyces cerevisiae	0.702
DCMSSVFQSPPG	Saccharomyces cerevisiae	0.693
TLFSFLLVFVFG	Saccharomyces cerevisiae	0.411
VGSWSVICGGVL	Saccharomyces cerevisiae	0.693
KEKGSRYKRALS	Saccharomyces cerevisiae	0.679
GAVLELCRADGG	Saccharomyces cerevisiae	0.651
PSTRPMLRSQQK	Saccharomyces cerevisiae	0.66
FFPSPPPVLSPP	Saccharomyces cerevisiae	0.747
PLPPIPPSTPST	Saccharomyces cerevisiae	0.726
VAVGLGRAVFGV	Saccharomyces cerevisiae	0.611
ECTTTWLVPQHL	Saccharomyces cerevisiae	0.655
AGGSTGMGARSR	Saccharomyces cerevisiae	0.688
LIWHTLSTVIPF	Saccharomyces cerevisiae	0.657
VGACLEVWDGVR	Saccharomyces cerevisiae	0.686
GWLAERGPLEGG	Saccharomyces cerevisiae	0.728
RIGKKKRYNEKS	Saccharomyces cerevisiae	0.751
APTPPPPSPLAP	Saccharomyces cerevisiae	0.73
HCLLLSLVFFFW	Saccharomyces cerevisiae	0.727
VRSTPLKEMMRH	Saccharomyces cerevisiae	0.681
CTAWWVKGVAVK	Saccharomyces cerevisiae	0.525
GREGETGSKAGR	Saccharomyces cerevisiae	0.552
WFFRLFFLFFSG	Saccharomyces cerevisiae	0.383
FHPRPPLLPSLP	Saccharomyces cerevisiae	0.644
VFLSITHFESRV	Saccharomyces cerevisiae	0.723
PAPPPPPPPPLH	Saccharomyces cerevisiae	0.701
MCNPAYVTSGVI	Saccharomyces cerevisiae	0.699
KYRHDFNEVSKT	Saccharomyces cerevisiae	0.665
GYRFSILSILRV	Saccharomyces cerevisiae	0.482
VVSGIFQVLATC	Saccharomyces cerevisiae	0.614
EYRRADYCLGVG	Saccharomyces cerevisiae	0.547
SRSPPVLTRHKL	Saccharomyces cerevisiae	0.824
RGPPMPGRRGRA	Saccharomyces cerevisiae	0.7
RKNHKKNHKTRI	Saccharomyces cerevisiae	0.65
GKVTRGTRRGGK	Saccharomyces cerevisiae	0.669
PLPSARPPPLPS	Saccharomyces cerevisiae	0.685
ARRPGGGRSGGN	Saccharomyces cerevisiae	0.672
PGFVGPWAGGGA	Saccharomyces cerevisiae	0.735
LAEGFSLIRSHR	Saccharomyces cerevisiae	0.685
CSLFIRCAPFCG	Saccharomyces cerevisiae	0.705
KGANISDCLSIF	Saccharomyces cerevisiae	0.616
CFFLLLRVSLFP	Saccharomyces cerevisiae	0.239
GGYIINRWRTKN	Saccharomyces cerevisiae	0.27
SQHTNTKTKLKK	Saccharomyces cerevisiae	0.706
PSLLLPPLPLYT	Saccharomyces cerevisiae	0.662
PPPTDSQTTWHP	Saccharomyces cerevisiae	0.705
APPPPRAPTPPP	Saccharomyces cerevisiae	0.696
GPTSTETYKEVG	Saccharomyces cerevisiae	0.671
VTVCQTRGADSV	Saccharomyces cerevisiae	0.579
PNHGEYRNGLYV	Saccharomyces cerevisiae	0.715
PTPPSARAPPTT	Saccharomyces cerevisiae	0.686
PNLKKHFRADEP	Saccharomyces cerevisiae	0.683
RRPGSTTPPAYR	Saccharomyces cerevisiae	0.675
NIKHTDKPNHIN	Saccharomyces cerevisiae	0.609

* * *

system: Saccharomyces cerevisiae; test: protein stability index of tFT-peptide fusion (C-terminal peptide) (PSI (0-1 scale)); higher = more stable (slower turnover); conditions: genetic background: wild type; temperature: 30 C
We begin with a simple list: items and their reported protein stability index.
endpoint-label: protein stability index

sequence-chain	reported-value
SSTCSPPRLSQS	0.679
HPRPPAASSRTR	0.707
CPLLSPTPPLRP	0.703
FVSSSVFFVFSF	0.627
DKVLQSLALKCK	0.508
GSLLSNVPPRIR	0.706
PPAEPLRLHAHA	0.709
RGTGRLDRLGLR	0.662
LISPPAQLAFVP	0.696
RITGCWKTYKMQ	0.308
GEGLGGGRGRRW	0.653
SILPRWEFKSLS	0.802
CGWLTCSAGFCA	0.726
GKRHSYSIISSV	0.668
PPPTRPSQAPHL	0.645
LSLHCIYQQIFR	0.822
PFFLSFPPSALL	0.741
LIRLCVAPMVCR	0.438
CHTDLPLLGTSR	0.681
FGFLDRVLLFRV	0.547
SVETVSSSSVAD	0.656
PGPKAAHSKRDR	0.662
GLWLRVCIVAWV	0.14
GSCSGTVLGGSV	0.626
KEELKKRRQEAK	0.677
GLLCSKTCCAGV	0.645
GVVCCVVVGRMG	0.503
QEIRKEILLIKS	0.6
PYSLYASSSSPL	0.727
GGGGPVWREPGT	0.761
LCFTSVFTLFIC	0.101
DKATGARGKPPR	0.649
STPSPPPAPRSP	0.708
RRLLRWFYLDGG	0.661
SNGGCIMSNIYS	0.758
PPPPTPPPRTSP	0.739
LAVKGIVNDSTI	0.683
EHKVQTTTNQKE	0.697
LAIIKLRGDLSY	0.665
SPPESTFAFLRP	0.706
GSIRFVIFLTRL	0.587
LSVGLVPFRWRV	0.658
YLPWFADLHPGV	0.737
PVIGLSMEKARG	0.739
FRWGGPSGEVRE	0.643
ASTRPFYVSSFG	0.741
CGDAGSVGCVYV	0.699
VCVLRWAVAPCR	0.356
MCPRFCPPLRSF	0.686
CSRTIGGFLWDQ	0.699
PPPGRRRLRGPT	0.705
PRHVISQCFSRT	0.664
RHRGHVRLALLN	0.396
PPPRLPPPPHAL	0.795
INKWNKRDGLFQ	0.66
GGTAYFSNRGWA	0.595
VWTITGFIPVVF	0.517
FAWSPPACFIPS	0.654
PRAANRWASKAL	0.694
RRVPVVSRAGGG	0.697
RGWVAGGSSAWS	0.673
QSLPLSAPAPAC	0.697
GNPDFQVTKNPY	0.67
TISHPLGPFSVH	0.66
NGDRGQWGMNQR	0.708

* * *

tested on: Saccharomyces cerevisiae; assay: protein stability index of tFT-peptide fusion (C-terminal peptide) (PSI (0-1 scale)); higher = more stable (slower turnover); conditions: genetic background: wild type; temperature: 30 C;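 also: PSI is a weighted mean of sequencing reads over stability bins, variants kept only with over 10 reads, mCherry proximal and sfGFP distal, peptide attached via GGGS linker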

sequence-chain	protein stability index
KNKREKKKENTK	0.682
GVGGRAGWGGLL	0.717
NKVISETKKLDN	0.65
QKKSGKNGIRPK	0.701
GGFGVLGLGVVG	0.696
LCQCAFLSFSCF	0.616
VISGFVLVFRVR	0.441
LSVNAGWLQLCA	0.561
GLGVCSPRFLVL	0.763
HQPSPFPKNSPT	0.717
PPPSPPLPPPLL	0.696
ASSLPIWLVWWL	0.536
GGRKKEDEEEEA	0.651
SPPPPPPPHSPD	0.654
PLWEYGCLFASS	0.718
LLSLLQLPASAS	0.605
PLFAPLTPPLPP	0.734
RTDKETIKKIVE	0.72
FGGSGAYRRVGE	0.7
ISLRAPVRPECV	0.709
PRSAPPPPNSLF	0.656
GVYWGEIDDVER	0.717
GSVGDASYAAVW	0.819
DHGRLFSNILIS	0.645
HSPPSPHFPHHH	0.661
ILFVCVCVLHVG	0.242
HGCQGKVRQSHR	0.651
LPFLVSPPLFRT	0.664
DGASAARQGGAR	0.717
VDINYVIGRIRS	0.642
PPSTSPTLTSAR	0.722
APRPSPRPTPPS	0.662
VVVGPVTKRGGH	0.68
SGKSSFLGAVWV	0.711
PRHPRLPAPPAP	0.666
GEPGQTSGREKT	0.641
PLPPRPCCLPRP	0.644
GTGSRFRCLERS	0.739
FQGSDCLYFGLL	0.741
